Source: PubChem BioAssay

Entries annotated with measured z-score
# TEST_SUMMARY: inhibitors of hydroxyurea-induced Chk1 phosphorylation, primary screen, imaging, HeLa, phospho-Chk1 nuclear intensity (AID 1187); also: test concentration not given here
# PARTICULARS: hydroxyurea-induced phospho-Chk1 immunofluorescence imaging, higher = more signal

MOLECULE | z-score
C=CCC(OC(C)=O)[C@@H]1[C@@H](N(Cc2cccc3ccccc23)C(=O)c2ccc(C)cc2)c2cc(OCCCO)ccc2N1C(=O)Cc1ccc2ccccc2c1 (some centres not stated) | -0.416
CN1C(=O)C2C(C1=O)C1C=C(CCCO)C2C(C2CC2)N1C (configuration not stated) | 0.162
CC(C)(C)OC(=O)N1[C@@H](C=C(Br)Br)COC1(C)C | -0.129
CCCCN1CC=CC23O[C@@H]4/C=C\CCC(C)OC(=O)C4[C@H]2C(=O)N(CCO)[C@@H]3C1=O (some centres not stated) | -0.862
CC1C2C(CCCO)=CC(C3C(=O)N(C)C(=O)C23)N1Cc1cccc(OC(F)(F)F)c1 (configuration not stated) | -0.301
COc1cc(Cc2cc3c(c(-c4ccccc4)n2)[Si](C(C)C)(C(C)C)OC3)cc(OC)c1OC | -0.317
CCCCC(=C=CC[C@@H](O)c1ccc(OCCO)cc1)CCO | 0.509
Cc1c(NC(=O)/C(C#N)=C/C=C/c2ccc([N+](=O)[O-])cc2)c(=O)n(-c2ccccc2)n1C | 0.501
CC(=O)NCCCC[C@@H]1NC(=O)[C@H]2C[C@@H](C(=O)NCCCCCN)[C@@H](c3ccc(O)cc3)N2C1=O | -0.163
CCCCC(=C=CC[C@@H](O)c1ccccc1OCCO)C[C@@H](O)c1ccccn1 | -0.123
C=CC[C@]12N=C(c3ccc(OCCCO)cc3)O[C@H]1c1ccccc1N(CCC)C2=O | -0.234
COc1ccc([Si](C)(C)[C@H]2[C@H](CCO)O[C@@]3(C(=O)N(Cc4ccccc4)c4ccc(NC(=O)[C@H](C)O)cc43)[C@@H]2C)cc1 | -0.751
Cc1ccc(S[C@]2(C(=O)NCC(C)C)CC(=O)N(C(C)C)[C@@H]2c2ccc(CO)cc2I)cc1 | 0.023
COCCOC(=O)N1C(=O)[C@@]2(c3cc(C#CCNC(N)=O)ccc31)[C@H](C(N)=O)[C@H]1C(=O)O[C@H](c3ccccc3)[C@H](c3ccccc3)N1[C@@H]2c1ccc(O)cc1 | 0.888
[N-]=[N+]=NCc1ccccc1[C@H]1OC(c2ccc(OCCCO)cc2)=N[C@@]1(CCS(=O)(=O)c1ccccc1)C(=O)O | -0.587
C=C[C@H](C)[C@@H](OC(=O)Nc1ccc(SC)cc1)c1ccc(OCCO)cc1 | -0.809
CCCCCCc1nc(Cc2cc(OC)c(OC)c(OC)c2)c(C)c2c1[Si](C(C)C)(C(C)C)OC2 | -0.386
